Lab note: Ki readings collected with μ receptors (Homo sapiens) for the following compounds.
Sequence (P35372 whole entry): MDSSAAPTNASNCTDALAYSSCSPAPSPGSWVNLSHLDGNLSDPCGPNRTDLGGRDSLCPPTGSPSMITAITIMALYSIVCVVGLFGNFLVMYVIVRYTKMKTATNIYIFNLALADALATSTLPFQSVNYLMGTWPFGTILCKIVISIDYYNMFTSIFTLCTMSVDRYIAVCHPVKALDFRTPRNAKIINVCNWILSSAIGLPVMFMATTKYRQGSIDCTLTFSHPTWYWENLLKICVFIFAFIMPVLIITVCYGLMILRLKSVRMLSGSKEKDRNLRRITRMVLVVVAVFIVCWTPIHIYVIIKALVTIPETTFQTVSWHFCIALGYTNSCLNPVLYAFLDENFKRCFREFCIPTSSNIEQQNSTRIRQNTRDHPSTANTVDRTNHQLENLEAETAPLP
Number in µM, nothing else.

sample smiles: COC(=O)[C@@H]1C[C@H](OC(=O)Nc2ccccc2)C(=O)[C@H]2[C@@]1(C)CC[C@H]1C(=O)O[C@H](c3ccoc3)C[C@]21C
number: 0.016
//
sample smiles: COC(=O)[C@@H]1C[C@H](OC(=O)c2cccnc2)C(=O)[C@H]2[C@@]1(C)CC[C@H]1C(=O)O[C@H](c3ccoc3)C[C@]21C
number: 0.073

// next entry
Input line: For μ receptors (Homo sapiens), give Ki of the listed compound: `COC(=O)[C@@H]1C[C@H](OC(=O)c2ccccc2)C(=O)[C@H]2[C@@]1(C)CC[C@H]1C(=O)O[C@H](c3ccoc3)C[C@]21C`
Output line: 0.012

---

test system: δ receptors (Homo sapiens, UniProt P41143)
Sequence (P41143 whole entry): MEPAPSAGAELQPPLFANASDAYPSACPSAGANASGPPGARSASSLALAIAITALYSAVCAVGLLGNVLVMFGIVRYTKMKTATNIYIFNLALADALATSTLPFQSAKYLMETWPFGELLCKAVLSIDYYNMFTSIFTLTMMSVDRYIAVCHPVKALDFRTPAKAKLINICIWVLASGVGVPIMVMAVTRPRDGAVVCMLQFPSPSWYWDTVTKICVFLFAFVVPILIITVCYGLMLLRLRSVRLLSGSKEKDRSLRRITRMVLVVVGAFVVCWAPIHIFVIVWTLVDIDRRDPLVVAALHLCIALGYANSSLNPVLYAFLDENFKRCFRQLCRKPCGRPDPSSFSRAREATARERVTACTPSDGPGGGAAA
experiment summary: biochemical
Format: binding
test parameters: read-out: Ki at δ receptors
Each entry below carries its reported Ki.
Number in µM, nothing else.

sample smiles: COC(=O)[C@@H]1C[C@H](OC(=O)Nc2ccccc2)C(=O)[C@H]2[C@@]1(C)CC[C@H]1C(=O)O[C@H](c3ccoc3)C[C@]21C
number: 0.23

Input line: For the molecule `COC(=O)[C@@H]1C[C@H](OC(=N)C(Cl)(Cl)Cl)C(=O)[C@H]2[C@@]1(C)CC[C@H]1C(=O)O[C@H](c3ccoc3)C[C@]21C` , report Ki.
Output line: 6.47

---

test system: κ receptors (Homo sapiens)
experiment summary: biochemical
Format: binding
measurement kind: fold loss/decrease in affinity at κ receptors compared to 1

compound: COC(=O)[C@@H]1C[C@H](OC(=O)c2ccccc2)C(=O)[C@H]2[C@@]1(C)CC[C@H]1C(=O)O[C@H](c3ccoc3)C[C@]21C [Compound 13]
test system: κ receptors (Homo sapiens)
result: 47 fold

// next entry
Input line: For the compound COC(=O)[C@@H]1C[C@H](O[Si](C)(C)C)C(=O)[C@H]2[C@@]1(C)CC[C@H]1C(=O)O[C@H](c3ccoc3)C[C@]21C [Compound 16] , report fold loss/decrease in affinity at κ receptors compared to 1.
Output line: 847 fold

---

test system: κ receptors (Homo sapiens, UniProt P41145)
Sequence (P41145 whole entry): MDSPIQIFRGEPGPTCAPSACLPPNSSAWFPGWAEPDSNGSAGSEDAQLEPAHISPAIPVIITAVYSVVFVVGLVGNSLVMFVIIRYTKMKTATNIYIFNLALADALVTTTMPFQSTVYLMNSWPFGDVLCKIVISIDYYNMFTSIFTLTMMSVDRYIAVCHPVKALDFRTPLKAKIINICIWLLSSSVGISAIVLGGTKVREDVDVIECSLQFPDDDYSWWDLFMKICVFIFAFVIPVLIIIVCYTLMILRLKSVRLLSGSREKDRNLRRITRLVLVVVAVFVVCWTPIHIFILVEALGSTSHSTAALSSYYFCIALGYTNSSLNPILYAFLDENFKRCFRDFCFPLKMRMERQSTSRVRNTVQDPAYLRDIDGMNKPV
experiment summary: biochemical
Format: binding
Each entry below carries its reported fold loss/decrease in affinity at κ receptors compared to 1.
Number in fold, nothing else.

Guide cases for fold loss/decrease in affinity at κ receptors compared to 1, answers given:
sample smiles: COC(=O)[C@@H]1C[C@H](OC(=O)Nc2ccccc2)C(=O)[C@H]2[C@@]1(C)CC[C@H]1C(=O)O[C@H](c3ccoc3)C[C@]21C
number: 49
//
sample smiles: COC(=O)[C@@H]1C[C@H](OC(C)=O)[C@H](OC(C)=O)[C@H]2[C@@]1(C)CC[C@H]1C(=O)O[C@H](c3ccoc3)C[C@]21C
number: 340

// next entry
Input line: For the compound `COC(=O)[C@@H]1C[C@H](OC(=N)C(Cl)(Cl)Cl)C(=O)[C@H]2[C@@]1(C)CC[C@H]1C(=O)O[C@H](c3ccoc3)C[C@]21C` , report fold loss/decrease in affinity at κ receptors compared to 1.
Output line: 34
